Molecular target: CDK7/Cyclin H/MAT-1 complex (Homo sapiens, UniProt P50613)
Construct: Human CDK7 (amino acids 1-346); His6 (N); TEV protease cleavage site (N); made in house; host or cells: baculovirus-SF9 insect cells
Sequence (P50613 whole entry, the tested form may be a part): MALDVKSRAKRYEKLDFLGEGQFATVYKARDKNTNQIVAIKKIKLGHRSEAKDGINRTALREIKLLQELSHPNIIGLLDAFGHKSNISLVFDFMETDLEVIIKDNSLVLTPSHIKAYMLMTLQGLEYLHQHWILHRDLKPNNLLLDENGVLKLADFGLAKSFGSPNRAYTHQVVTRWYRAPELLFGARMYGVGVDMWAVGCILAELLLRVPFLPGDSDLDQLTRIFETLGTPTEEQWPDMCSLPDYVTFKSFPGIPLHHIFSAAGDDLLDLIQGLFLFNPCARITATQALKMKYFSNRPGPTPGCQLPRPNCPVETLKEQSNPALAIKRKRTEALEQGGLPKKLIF
Sequence (P51946 whole entry partner, the tested form may be a part): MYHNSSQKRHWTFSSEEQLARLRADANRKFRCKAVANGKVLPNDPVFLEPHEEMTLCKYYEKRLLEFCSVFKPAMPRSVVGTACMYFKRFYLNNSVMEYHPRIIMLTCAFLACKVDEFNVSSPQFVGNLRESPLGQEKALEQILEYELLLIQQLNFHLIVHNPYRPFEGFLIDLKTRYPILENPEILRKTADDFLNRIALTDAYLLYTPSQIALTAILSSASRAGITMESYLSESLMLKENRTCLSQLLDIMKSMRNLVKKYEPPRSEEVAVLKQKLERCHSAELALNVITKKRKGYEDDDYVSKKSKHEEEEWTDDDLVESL
Sequence (P51948 whole entry partner, the tested form may be a part): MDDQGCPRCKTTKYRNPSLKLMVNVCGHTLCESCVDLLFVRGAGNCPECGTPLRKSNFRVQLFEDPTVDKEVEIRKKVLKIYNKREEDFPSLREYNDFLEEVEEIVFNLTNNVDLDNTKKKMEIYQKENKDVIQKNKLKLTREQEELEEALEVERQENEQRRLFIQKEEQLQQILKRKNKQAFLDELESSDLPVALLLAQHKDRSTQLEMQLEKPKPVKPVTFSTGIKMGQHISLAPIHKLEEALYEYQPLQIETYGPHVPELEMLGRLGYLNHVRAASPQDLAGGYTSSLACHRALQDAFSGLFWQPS
Assay: Absorbance kinetic assay (20 nM CDK7/Cyclin H/MAT-1 complex)
Assay type: biochemical
Details: read-out: CDK7 (20 nM) pIC50 (converted)
Assay endpoint: IC50 (nM)

(1) C[C@H]1Cc2cnc(NCc3ccn(C)n3)cc2CN1C(=O)[C@H]1CCN(C)C[C@@H]1c1ccccc1 (relative stereo)
(2) C[C@@H]1CN(C(=O)[C@H]2CCN(C)C[C@@H]2c2ccccc2)[C@H](C)c2nc(NC3CCOCC3)ncc21 (relative stereo)
(3) C[C@@H]1Cc2cnc(NCc3ccn(C)n3)nc2CN1C(=O)[C@H]1CCN(C)C[C@@H]1c1ccccc1C(F)F (relative stereo)
(4) C[C@H]1c2nc(NC3CCOCC3)ncc2CCN1C(=O)[C@H]1CCN(C)C[C@@H]1c1ccccc1 (relative stereo)
IN: Order the entries above from lowest to highest IC50. Your answer should be the labels, listed in the requested order.
OUT: 1, 4, 3, 2
(1: 11.2 nM, 4: 25.7 nM, 3: 91.2 nM, 2: 724 nM)

(P) CO[C@H]1CC[C@H](Nc2ncc3c(n2)CN(C(=O)C2CCN(C)CC2c2ccnc(C)c2)[C@H](C)C3)CC1 (stereo partly drawn)
(Q) C[C@H]1CN(C(=O)[C@H]2CCN(C)C[C@@H]2c2ccccc2)[C@@H](C)c2nc(NC3CCOCC3)ncc21 (relative stereo)
IN: I'm curious whether P or Q has the smaller IC50 number. Which is it? Which one? Tell me its label.
OUT: P

(A) Cc1cccc([C@@H]2CN(C)CC[C@H]2C(=O)N2Cc3nc(NCc4ccn(C)n4)ncc3C[C@H]2C)c1 (relative stereo)
(B) C[C@@H]1Cc2cnc(NC3CCOCC3)nc2CN1C(=O)[C@@H]1CCN(C)C[C@H]1c1ccncc1 (relative stereo)
(C) Cc1cccc([C@@H]2CN(C)CC[C@H]2C(=O)N2Cc3nc(Nc4cnn(C)c4)ncc3C[C@H]2C)c1 (relative stereo)
IN: Hey, quick one: sort these by IC50, low to high? Your answer should be the labels, listed in the requested order.
OUT: A, B, C
(A: 11.5 nM, B: 37.2 nM, C: 339 nM)

----------
Test system: RNA polymerase II Serine 5 phosphorylation (Rpb1 CTD), downstream substrate of CDK7
Experiment: Imaging-based cellular RNA PolII Ser5 phosphorylation assay in A549 cells
Assay type: cell-based, human
Settings: Homo sapiens, A549, 3 h, challenged with compound for 3 hours, read-out: pRNA polII Ser5 (A549) pIC50 (converted)
Assay endpoint: IC50 (nM)

Cc1ccc([C@@H]2CN(C)CC[C@H]2C(=O)N2Cc3nc(NC4CCOCC4)ncc3C[C@H]2C)cn1 (relative stereo) = 1700
C[C@@H]1Cc2cnc(NC3CCN(S(=O)(=O)N(C)C)CC3)nc2CN1C(=O)N1CCN(C)C[C@@H]1c1ccccc1 = 724

(A) C[C@@H]1Cc2cnc(NC3CCOCC3)nc2CN1C(=O)[C@@H]1CC[C@@H](N(C)C)CN1c1ccccc1 (mixture of isomers)
(B) C[C@@H]1Cc2cnc(NCc3ccn(C)n3)nc2CN1C(=O)[C@H]1CCN(C)C[C@@H]1C(F)(F)F (relative stereo)
(C) C[C@@H]1Cc2cnc(NC3CCC(OCC4CC4)CC3)nc2CN1C(=O)[C@H]1CCN(C)C[C@@H]1c1ccccc1 (stereo partly drawn)
(D) CC(C)N1CC[C@H](C(=O)N2Cc3nc(NC4CCOCC4)ncc3C[C@H]2C)[C@@H](c2ccccc2)C1 (single isomer, unassigned)
(E) CO[C@H]1CC[C@@H](Nc2ncc3c(n2)CN(C(=O)[C@H]2CCN(C)C[C@@H]2c2ccccc2)[C@H](C)C3)CC1
IN: Hey, quick one: sort these by IC50, low to high? Your answer should be the labels, listed in the requested order.
OUT: C, D, E, B, A
(C: 60.3 nM, D: 178 nM, E: 1380 nM, B: 2570 nM, A: 5750 nM)

----------
Target: CDK7/Cyclin H/MAT-1 complex (Homo sapiens, UniProt P50613)
Construct: Human CDK7 (amino acids 1-346); His6 (N); TEV protease cleavage site (N); made in house; host or cells: baculovirus-SF9 insect cells
Experiment: Flint assay, end-point fluorescence (5 nM CDK7/Cyclin H/MAT-1 complex)
Assay type: biochemical
Details: read-out: CDK7 (5 nM) pIC50 (converted)
Assay endpoint: IC50 (nM)

C[C@@H]1Cc2cnc(N[C@H](C)c3ccn(C)n3)nc2CN1C(=O)[C@H]1CCN(C)C[C@@H]1c1ccccc1 (single isomer, unassigned) = 5.13

(A) C[C@@H]1Cc2cnc(NC3CCOCC3)nc2CN1C(=O)[C@H]1CCN(C)C[C@@H]1c1ccc(Cl)cc1 (relative stereo)
(B) C[C@@H]1Cc2cnc(NCc3ccn(C)n3)nc2CN1C(=O)[C@@H]1CCN(C)C[C@H]1c1ccccc1F (relative stereo)
IN: Quick check, higher IC50 between A and B ? Which one? Tell me its label.
OUT: B
(B: 7.94 nM, A: 3.63 nM)

----------
Biological target: CDK7/Cyclin H/MAT-1 complex (Homo sapiens)
Construct: Human CDK7 (amino acids 1-346); His6 (N); TEV protease cleavage site (N); made in house; host or cells: baculovirus-SF9 insect cells
Test: Absorbance kinetic assay (20 nM CDK7/Cyclin H/MAT-1 complex)
Assay type: biochemical
Method: Human CDK7 (amino acids 1-346) containing an N-terminal His6-tag followed by a tobacco etch virus (TEV) protease cleavage site, human MAT1 (amino acids 1-309) and human cyclin H (amino acids 1-323) were co-expressed in the baculovirus-SF9 insect cell expression system to generate a trimeric complex. […] Absorbance Kinetic Assay (20 nM CDK7/Cyclin H/MAT-1 Complex) […] Absorbance at 340 nm was followed kinetically at an interval of 2 minutes for 8 hours. […]
Assay endpoint: CDK7 (20 nM) pIC50

Cc1ncc(CNc2ncc3c(n2)CN(C(=O)[C@H]2CCN(C)C[C@@H]2c2ccccc2)[C@H](C)C3)[nH]1 = 7.97
Cc1ccc(CNc2ncc3c(n2)CN(C(=O)[C@H]2CCN(C)C[C@@H]2c2ccccc2)[C@H](C)C3)cn1 = 7.50
C[C@@H]1Cc2cnc(NCc3ccccn3)nc2CN1C(=O)[C@H]1CCN(C)C[C@@H]1c1ccccc1 = 7.78
C[C@@H]1Cc2cnc(NCc3cc(C(F)F)n(C)n3)nc2CN1C(=O)[C@H]1CCN(C)C[C@@H]1c1ccccc1 = 6.85
C[C@@H]1Cc2cnc(NC3CCOCC3)nc2CN1C(=O)N1CCNC[C@@H]1c1ccccc1 = 7.66
CO[C@H]1CC[C@H](Nc2ncc3c(n2)CN(C(=O)[C@H]2CCN(C)C[C@@H]2c2ccccc2)[C@H](C)C3)CC1 = 8.01
C[C@@H]1Cc2cnc(NC3CCN(C(=O)CC4CC4)CC3)nc2CN1C(=O)[C@H]1CCN(C)C[C@@H]1c1ccccc1 = 7.81
C[C@H](Nc1ncc2c(n1)CN(C(=O)[C@H]1CCN(C)C[C@@H]1c1ccccc1)[C@H](C)C2)c1ccccn1 = 8.01
CC(C)N1CC[C@H](C(=O)N2Cc3nc(NC4CCOCC4)ncc3C[C@H]2C)[C@@H](c2cccc(Cl)c2)C1 (single isomer, unassigned) = 6.96
Cc1cc(C2CN(C)CCC2C(=O)N2Cc3nc(NC4CCOCC4)ncc3C[C@H]2C)ccn1 (some centres unmarked) = 7.67

----------
System: RNA polymerase II Serine 5 phosphorylation (Rpb1 CTD), downstream substrate of CDK7
Assay: Imaging-based cellular RNA PolII Ser5 phosphorylation assay in A549 cells
Assay type: cell-based, human
Conditions: Homo sapiens, A549, 3 h, challenged with compound for 3 hours, read-out: pRNA polII Ser5 (A549) pIC50 (converted)
Assay endpoint: IC50 (nM)

C[C@H]1c2nc(NC3CCOCC3)ncc2CCN1C(=O)[C@H]1CCN(C)C[C@@H]1c1ccccc1 (relative stereo) = 537

(a) C[C@@H]1Cc2cnc(NC3CCC(F)(F)CC3)nc2CN1C(=O)[C@H]1CCN(C)C[C@@H]1c1ccccc1
(b) C[C@@H]1Cc2cnc(Nc3ccnn3C)nc2CN1C(=O)[C@H]1CCN(C)C[C@@H]1c1ccccc1
IN: Quick check, higher IC50 between a and b ? Which one? Tell me its label.
OUT: b

----------
Biological target: CDK7/Cyclin H/MAT-1 complex (Homo sapiens, UniProt P50613)
Construct: Human CDK7 (amino acids 1-346); His6 (N); TEV protease cleavage site (N); made in house; host or cells: baculovirus-SF9 insect cells
Assay: Absorbance kinetic assay (20 nM CDK7/Cyclin H/MAT-1 complex)
Assay type: biochemical
Assay endpoint: CDK7 (20 nM) pIC50

C[C@@H]1Cc2cnc(NC3CCOCC3)nc2CN1C(=O)[C@@H]1CCN(C)C[C@H]1C(F)(F)F [Compound 140a] = 5.89

(P) C[C@@H]1Cc2cnc(NC3CCS(=O)(=O)CC3)nc2CN1C(=O)N1CCN(C)C[C@@H]1c1ccccc1
(Q) C[C@@H]1Cc2cnc(NC3CCOCC3)nc2CN1C(=O)[C@@H]1CCN(C)C[C@H]1c1ccc(F)cc1 [Compound 92a]
IN: Quick check, higher CDK7 (20 nM) pIC50 between P and Q ? Which one? Tell me its label.
OUT: P
(P: 7.55, Q: 5.11)
